- assay.system: M. tuberculosis DNA gyrase (Mycobacterium tuberculosis, UniProt P9WG47)
- Construct: purchased Inspiralis (Norwich, UK)
- Sequence (P9WG45 whole entry): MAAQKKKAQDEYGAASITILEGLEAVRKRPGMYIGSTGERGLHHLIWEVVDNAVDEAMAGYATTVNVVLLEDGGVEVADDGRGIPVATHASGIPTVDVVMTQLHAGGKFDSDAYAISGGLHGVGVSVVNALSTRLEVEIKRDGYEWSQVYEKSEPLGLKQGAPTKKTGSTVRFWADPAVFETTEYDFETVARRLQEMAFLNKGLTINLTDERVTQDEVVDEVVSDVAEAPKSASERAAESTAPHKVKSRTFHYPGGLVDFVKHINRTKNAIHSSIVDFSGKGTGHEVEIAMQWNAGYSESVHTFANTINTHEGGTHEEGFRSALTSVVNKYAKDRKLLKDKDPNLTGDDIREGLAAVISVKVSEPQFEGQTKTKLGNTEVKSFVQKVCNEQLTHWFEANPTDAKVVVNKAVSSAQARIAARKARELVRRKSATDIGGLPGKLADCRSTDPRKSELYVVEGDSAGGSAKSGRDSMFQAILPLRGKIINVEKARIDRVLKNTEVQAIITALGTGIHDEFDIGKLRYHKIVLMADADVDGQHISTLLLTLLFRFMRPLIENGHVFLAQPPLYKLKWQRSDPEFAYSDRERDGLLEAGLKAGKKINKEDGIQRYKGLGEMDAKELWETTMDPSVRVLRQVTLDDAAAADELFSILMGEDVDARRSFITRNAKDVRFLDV
- Sequence (P9WG47 whole entry): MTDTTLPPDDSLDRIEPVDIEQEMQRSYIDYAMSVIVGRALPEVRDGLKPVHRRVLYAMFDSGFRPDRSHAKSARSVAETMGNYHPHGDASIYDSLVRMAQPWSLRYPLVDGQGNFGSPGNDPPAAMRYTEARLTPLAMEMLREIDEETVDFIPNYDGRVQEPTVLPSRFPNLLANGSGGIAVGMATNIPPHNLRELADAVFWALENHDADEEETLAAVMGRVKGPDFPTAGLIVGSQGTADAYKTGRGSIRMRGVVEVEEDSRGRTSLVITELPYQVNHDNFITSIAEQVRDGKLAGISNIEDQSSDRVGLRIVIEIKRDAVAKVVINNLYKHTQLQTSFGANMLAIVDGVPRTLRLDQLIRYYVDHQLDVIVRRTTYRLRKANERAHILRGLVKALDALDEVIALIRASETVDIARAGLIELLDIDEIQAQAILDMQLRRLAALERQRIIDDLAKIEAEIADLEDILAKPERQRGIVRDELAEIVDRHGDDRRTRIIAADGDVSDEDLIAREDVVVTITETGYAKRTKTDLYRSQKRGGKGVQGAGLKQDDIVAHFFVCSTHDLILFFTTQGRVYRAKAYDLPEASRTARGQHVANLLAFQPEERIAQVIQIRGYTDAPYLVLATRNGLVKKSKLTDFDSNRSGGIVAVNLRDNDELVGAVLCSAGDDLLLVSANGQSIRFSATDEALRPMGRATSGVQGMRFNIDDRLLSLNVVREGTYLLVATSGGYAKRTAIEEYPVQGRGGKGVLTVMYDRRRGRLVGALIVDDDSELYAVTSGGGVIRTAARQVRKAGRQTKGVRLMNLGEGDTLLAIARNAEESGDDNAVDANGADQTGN
- experimental.protocol: biochemical
- experimental.conditions: M. tuberculosis DNA gyrase supercoiling, 100 nM compound
Kindly return condition met if reported inhibition at 0.1 µM is no lower than 20%; return condition not met if it is lower.

Example results:
COc1ccc2nccc(C(O)CC3CCC(NCc4ccc(Br)cc4)CC3)c2n1 (stereo not shown)	condition met
COc1ccc2nccc(CCN3CCC(NCc4ccc(N(C)C)cc4)CC3)c2n1	condition not met
COc1ccc2nccc(CCN3CCC(NCc4ccc(Br)cc4)CC3)c2n1	condition met

Reported inhibition at 0.1 µM reaches at least 20% for "COc1ccc2nccc(CCN3CCC(NCc4ccc(I)cc4)CC3)c2n1" ? condition met

Another: "COc1ccc2nccc(CCN3CCC(NCc4ccc(Cl)cn4)CC3)c2n1" condition not met

Another: "COc1ccc2nccc(CCN3CCC(NCc4ccc(Cl)nc4)CC3)c2n1" condition met
